Source of measurements: ChEMBL document CHEMBL2046403

Listing: Activity of selected compounds
Tested on: Rattus norvegicus
EXPERIMENT_DESCRIPTION: Hepatotoxicity in Wistar albino rat assessed as change in serum ALP level at 0.5 mg/kg, ip measured after 24 hrs
Format: toxicity, organism-based
Parameters: dose 0.5 mg/kg, route intraperitoneal
TEST_SETTINGS: in vivo
Please reply with the bare figure in U/L and do not write the unit itself.

Sample records with Activity:
1) COC(=O)/C=C(/C)c1c(O)c2ccccc2oc1=O :: 333
2) O=c1oc2ccccc2c(O)c1-c1csc(Nc2cccc([N+](=O)[O-])c2)n1 :: 225
3) COC(=O)/C(C(=O)O)=C(\C)c1c(O)c2ccccc2oc1=O :: 215

Moving on to the next compound.
Hello, I am looking for reported Activity with Rattus norvegicus for CC(=O)c1c(O)c2ccccc2oc1=O . Could you help?
200

---

Test system: Rattus norvegicus
EXPERIMENT_DESCRIPTION: Hepatotoxicity in Wistar albino rat assessed as change in serum AST level at 0.5 mg/kg, ip measured after 24 hrs relative to untreated control
Format: toxicity, organism-based
Set-up: dose 0.5 mg/kg, route intraperitoneal
TEST_SETTINGS: in vivo
Listing: fold change (FC) of selected molecules
Give the value as a plain number.

Sample records with fold change (FC):
1) O=c1oc2ccccc2c(O)c1-c1csc(Nc2ccc(S(=O)(=O)O)cc2)n1 :: 1.59
2) CCOC(=O)C(C(=O)OCC)=C(C)c1c(O)c2ccccc2oc1=O :: 1.41
3) O=c1oc2ccccc2c(O)c1-c1csc(Nc2cccc([N+](=O)[O-])c2)n1 :: 1.74

Moving on to the next molecule.
Hello, I am looking for reported fold change (FC) with Rattus norvegicus for Cc1cccc(Nc2nc(-c3c(O)c4ccccc4oc3=O)cs2)c1 . Could you help?
1.68

---

Tested on: Rattus norvegicus
EXPERIMENT_DESCRIPTION: Hepatotoxicity in Wistar albino rat assessed as change in serum gamma-GT level at 0.5 mg/kg, ip administered for 5 days measured after second compound dose
Assay type: toxicity, organism-based
Design: dose 0.5 mg/kg, route intraperitoneal
TEST_SETTINGS: in vivo, 120 h
OBSERVABLE: Activity (U/L)
Please reply with the bare figure in U/L and do not write the unit itself.

1. O=c1oc2ccccc2c(O)c1-c1csc(Nc2ccc(S(=O)(=O)O)cc2)n1 :: 2.2

Param item = O=c1oc2ccccc2c(O)c1-c1csc(Nc2cccc([N+](=O)[O-])c2)n1 ; retrieve measured Activity.
2.6

Next record, please: CCOC(=O)C(C(=O)OCC)=C(C)c1c(O)c2ccccc2oc1=O
2.3

Next record, please: Cc1cccc(Nc2nc(-c3c(O)c4ccccc4oc3=O)cs2)c1
3

---

Tested on: Plasma
EXPERIMENT_DESCRIPTION: Anticoagulant activity in human plasma assessed as international normalized ratio at 1 mg/ml
Assay type: functional
Listing: Ratio of selected compounds

Sample records with Ratio:
1. O=c1oc2ccccc2c(O)c1-c1csc(Nc2cccc3ccccc23)n1 :: 2.7
2. COC(=O)/C(C(C)=O)=C(/C)c1c(O)c2ccccc2oc1=O :: 1.8
3. CC(=O)c1c(O)c2ccccc2oc1=O :: 1.25
4. O=c1oc2ccccc2c(O)c1-c1csc(Nc2ccc([N+](=O)[O-])cc2)n1 :: 2.44
5. Cc1ccccc1Nc1nc(-c2c(O)c3ccccc3oc2=O)cs1 :: 1.7

Param item = O=C(O)CCCCNc1nc(-c2c(O)c3ccccc3oc2=O)cs1 ; retrieve measured Ratio.
2.1

Next record, please: COC(=O)/C=C(/C)c1c(O)c2ccccc2oc1=O
1.9
